Data provenance is patent US6509368B1.

- target.or.system: Human elastase (Homo sapiens)
- Sequence (P08246 30-247 limits assumed): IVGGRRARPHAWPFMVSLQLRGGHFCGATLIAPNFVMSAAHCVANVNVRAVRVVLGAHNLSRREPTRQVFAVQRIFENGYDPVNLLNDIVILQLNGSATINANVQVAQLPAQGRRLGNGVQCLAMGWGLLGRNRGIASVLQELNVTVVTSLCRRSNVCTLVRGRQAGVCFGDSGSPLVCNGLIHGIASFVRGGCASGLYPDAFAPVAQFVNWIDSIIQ
observation.type: pIC50
Scale note: pIC50 = -log10(concentration in M).

Checklist item: pIC50 tested on Human elastase (Homo sapiens), entry CCCCCCCCCOc1ccc(O)c(O)c1 , value?
5.80
